target: Human DHODH (spleen) (Homo sapiens, UniProt Q02127); construct: Human DHODH (spleen) enzyme activity; from tissue; host or cells: human spleen; assay: Human DHODH (spleen) enzyme activity; format: biochemical; conditions: human DHODH (spleen); read-out: DHODH IC50
Sequence (Q02127 whole entry): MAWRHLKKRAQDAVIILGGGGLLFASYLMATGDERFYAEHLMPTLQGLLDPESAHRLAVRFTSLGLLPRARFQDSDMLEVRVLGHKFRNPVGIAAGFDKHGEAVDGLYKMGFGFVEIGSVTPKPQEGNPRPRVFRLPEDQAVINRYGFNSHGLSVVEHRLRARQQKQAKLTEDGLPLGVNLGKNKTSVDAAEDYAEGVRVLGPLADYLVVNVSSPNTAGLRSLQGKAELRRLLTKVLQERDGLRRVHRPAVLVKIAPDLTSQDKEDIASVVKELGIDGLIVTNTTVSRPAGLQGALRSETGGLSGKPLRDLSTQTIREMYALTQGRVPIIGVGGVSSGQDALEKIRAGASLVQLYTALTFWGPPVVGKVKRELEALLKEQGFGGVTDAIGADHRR
Structures can show the parent of a compound that is named as a salt.
Endpoint: IC50 (µM)

>  <Compound>
N#CC(C(=O)Nc1ccc(C#N)cc1)=C(O)C1CC1 [Compound 2, sodium salt]

>  <Reported>
0.625

$$$$
>  <Compound>
Cc1cc(NC(=O)C(C#N)=C(O)C2CC2)ccc1C(F)(F)F

>  <Reported>
0.539

$$$$

* * *

test system: LoVo cells; test: MTT test on LoVo cells with added uridine; assay type: cell-based, human; conditions: Homo sapiens, LoVo, Table 3; uridine 1000 μM
Structures can show the parent of a compound that is named as a salt.
// pIC50 lookup, one value per entry
To interpret pIC50, take it as minus log10 of a concentration measured in moles per litre.

Example entries begin here.
>  <Molecule>
N#CC(C(=O)Nc1ccc(C#N)cc1)=C(O)C1CC1 [Compound 2, sodium salt]

>  <Endpoint>
pIC50

>  <Reported>
3.25

$$$$
>  <Molecule>
Cc1c(-c2ccc(-c3ccccc3F)cc2)nc2ccc(F)cc2c1C(=O)O [Brequinar, reference compound]

>  <Endpoint>
pIC50

>  <Reported>
3.89

$$$$

Turning now to a further record.
Can you share its pIC50? I mean this molecule: C#CCCC(O)=C(C#N)C(=O)Nc1ccc(C(F)(F)F)cc1 [Compound 1, sodium salt] 3.56

* * *

test system: A-172; assay: Inhibition of the proliferation of tumor cells (MTT test), A-172; format: cell-based, human; conditions: Homo sapiens, A 172, Table 4; A172; read-out: A172 (tested as described in Example 6, MTT test)
Endpoint: IC50 (µM)

Example entries begin here.
>  <Molecule>
CC(C)=CCCC(O)=C(C#N)C(=O)Nc1ccc(C(F)(F)F)cc1

>  <Reported>
95

$$$$
>  <Molecule>
C=CCC(O)=C(C#N)C(=O)Nc1ccc(C(F)(F)F)cc1

>  <Reported>
55

$$$$

I. C=CCC(O)=C(C#N)C(=O)Nc1ccc(SC(F)(F)F)cc1
II. N#CC(C(=O)Nc1ccc(C(F)(F)F)cc1)=C(O)C1CC1
Which entry has a larger number for IC50, I or II ? Please respond with the label that marks your chosen entry. I

* * *

tested on: HUV-EC-C; assay: Inhibition of proliferation (MTT test), HUV-EC-C / HUVEC endothelial cells; type: cell-based, human; conditions: Table 4; HUVEC; read-out: HUVEC (tested as described in Example 6, MTT test)
Endpoint: IC50 (µM)
Quick reminder: number only, in µM, skip the unit.

Can you share its IC50? I mean this compound: Cc1cc(NC(=O)C(C#N)=C(O)C2CC2)ccc1C(F)(F)F [Compound 14] 197

* * *

// pIC50 lookup, one value per entry
Tested on: A-172
Assay: Inhibition of the proliferation of tumor cells (MTT test), A-172
Format: cell-based, human
Conditions: Homo sapiens, A 172, Table 2; A-172, glioblastoma; read-out: MTT Test IC50
Method: Inhibition of the proliferation of tumor cells (MTT test) 1×10^4 cells per well are inoculated into a 96-well microtiter plate. After 24 h, the test substances are added at various concentrations. […] The extinction is measured at 492 nm for each well with the aid of a Multiscan photometer 340 CC (Flow). […] The mean value is formed from the 4 wells of a group and the IC50 values are calculated from the dose-response curve using the Software 3.0 (Erithacus Software Ltd.).
Structures can show the parent of a compound that is named as a salt.
To interpret pIC50, take it as minus log10 of a concentration measured in moles per litre.

Example entries begin here.
>  <Compound>
C#CCCC(O)=C(C#N)C(=O)Nc1ccc(C(F)(F)F)cc1 [Compound 1, sodium salt]

>  <pIC50>
4.11

$$$$
>  <Compound>
Cc1c(-c2ccc(-c3ccccc3F)cc2)nc2ccc(F)cc2c1C(=O)O [Brequinar, reference compound]

>  <pIC50>
6.70

$$$$

Turning now to a further record.
Can you share its pIC50? I mean this compound: N#CC(C(=O)Nc1ccc(C#N)cc1)=C(O)C1CC1 [Compound 2, sodium salt] 3.77

* * *

molecular target: Human DHODH (spleen) (Homo sapiens, UniProt Q02127); construct: Human DHODH (spleen) enzyme activity; from tissue; host or cells: human spleen; experiment: Human DHODH (spleen) enzyme activity; assay type: biochemical
Counter-ions that a name gives are not always drawn.
Endpoint: IC50 (µM)
Quick reminder: number only, in µM, skip the unit.

Can you share its IC50? I mean this molecule: C#CCCC(O)=C(C#N)C(=O)Nc1ccc(C(F)(F)F)cc1 [Compound 1, sodium salt] 0.292

* * *

system: A-172; assay: Inhibition of the proliferation of tumor cells (MTT test), A-172; type: cell-based, human; conditions: Homo sapiens, A 172, Table 4; A172; read-out: A172 (tested as described in Example 6, MTT test)
Counter-ions that a name gives are not always drawn.
Endpoint: IC50 (µM)

Example entries begin here.
>  <Compound>
N#CC(C(=O)Nc1ccc(Oc2ccc(F)cc2)cc1)=C(O)C1CCC1

>  <IC50 / µM>
190

$$$$
>  <Compound>
N#CC(C(=O)Nc1ccc(Br)cc1)=C(O)C1CC1

>  <IC50 / µM>
37

$$$$
>  <Compound>
N#CC(C(=O)Nc1ccc(Oc2ccccc2)cc1)=C(O)C1CC1

>  <IC50 / µM>
28

$$$$
>  <Compound>
C=CCCC(O)=C(C#N)C(=O)Nc1ccc(C(F)(F)F)cc1

>  <IC50 / µM>
55

$$$$
>  <Compound>
C=CC(O)=C(C#N)C(=O)Nc1ccc(C(F)(F)F)cc1

>  <IC50 / µM>
193

$$$$
>  <Compound>
C=CCCC(O)=C(C#N)C(=O)Nc1ccc(C)c(C)c1

>  <IC50 / µM>
63

$$$$
>  <Compound>
Cc1cc(NC(=O)C(C#N)=C(O)C2CC2)ccc1F

>  <IC50 / µM>
32

$$$$
>  <Compound>
N#CC(C(=O)Nc1ccc(Cl)cc1)=C(O)C1CC1

>  <IC50 / µM>
25

$$$$
>  <Compound>
N#CC(C(=O)Nc1ccc(SC(F)(F)F)cc1)=C(O)C1CC1

>  <IC50 / µM>
13

$$$$
>  <Compound>
Cc1cc(NC(=O)C(C#N)=C(O)C2CC2)ccc1C(F)(F)F

>  <IC50 / µM>
43

$$$$

1. N#CC(C(=O)Nc1ccc(C(F)(F)F)cn1)=C(O)C1CC1
2. N#CC(C(=O)Nc1ccc(C#N)cc1)=C(O)C1CC1 [Compound 2, sodium salt]
3. Cc1cc(Cl)ccc1Oc1ccc(NC(=O)C(C#N)=C(O)C2CC2)cc1
Please list these compounds in decreasing order of IC50. Your reply should list the labels following the order given in the request. 2, 1, 3
(2: 169 µM, 1: 94 µM, 3: 17 µM)

* * *

tested on: A-172; assay: Inhibition of the proliferation of tumor cells (MTT test), A-172; format: cell-based, human; conditions: Homo sapiens, A 172, Table 4; A172; read-out: A172 (tested as described in Example 6, MTT test)
pIC50: −log10 of the molar value. Structures can show the parent of a compound that is named as a salt.
Endpoint: pIC50

>  <Compound>
CC=CC=CC(O)=C(C#N)C(=O)Nc1ccc(C(F)(F)F)cc1

>  <pIC50>
3.70

$$$$
>  <Compound>
N#CC(C(=O)Nc1ccc(Oc2ccc(F)cc2)cc1)=C(O)C1CCCC1

>  <pIC50>
3.80

$$$$
>  <Compound>
C#CCCC(O)=C(C#N)C(=O)Nc1ccc(C(F)(F)F)cc1 [Compound 1, sodium salt]

>  <pIC50>
4.11

$$$$

I. N#CC(C(=O)Nc1ccc(OC(F)(F)F)cc1)=C(O)C1CC1
II. C#CCCC(O)=C(C#N)C(=O)Nc1ccc(Cl)cn1
Could you tell me which of I and II has the lower pIC50 reading? Please respond with the label that marks your chosen entry. II
(II: 3.85, I: 4.60)
